Measured values drawn from patent US4704384A for this set.

system: lymphoid leukemia L1210; details: Table XI, parentheses, per 6
survivors, IP L1210 values for the molecules below.
measurement.kind: survivors, IP L1210

{"columns": ["molecule", "test.system", "measurement.kind", "reported.value"],
 "data": [
  ["CN(CCO)C1=C(N2CC2)C(=O)C(N(C)CCO)=C(N2CC2)C1=O", "lymphoid leukemia L1210", "survivors, IP L1210", 1],
  ["CN(C)C1=C(N2CC2)C(=O)C(N(C)C)=C(N2CC2)C1=O", "lymphoid leukemia L1210", "survivors, IP L1210", 1],
  ["O=C1C(NCC(O)CO)=C(N2CC2)C(=O)C(NCC(O)CO)=C1N1CC1 (stereo not shown)", "lymphoid leukemia L1210", "survivors, IP L1210", 5],
  ["NC1=C(N2CC2)C(=O)C(N)=C(N2CC2)C1=O", "lymphoid leukemia L1210", "survivors, IP L1210", 3],
  ["O=C1C(NCCO)=C(N2CC2)C(=O)C(NCCO)=C1N1CC1", "lymphoid leukemia L1210", "survivors, IP L1210", 2],
  ["CCNC1=C(N2CC2)C(=O)C(NCC)=C(N2CC2)C1=O", "lymphoid leukemia L1210", "survivors, IP L1210", 2],
  ["O=C1C(N2CCN(CCO)CC2)=C(N2CC2)C(=O)C(N2CCN(CCO)CC2)=C1N1CC1", "lymphoid leukemia L1210", "survivors, IP L1210", 3]
]}

----------
test system: lymphoid leukemia L1210; conditions: Q4D (day 1,5,9), Table VIII
OD values for the compounds below.
measurement.kind: OD (mg/kg/injection)

{"columns": ["compound", "reported.value"],
 "data": [
  ["NC(=O)CNC1=C(N2CC2)C(=O)C(NCC(N)=O)=C(N2CC2)C1=O", 8.0],
  ["O=C1C(NCCO)=C(N2CC2)C(=O)C(NCCO)=C1N1CC1", 0.7],
  ["CCCNC1=C(N2CC2)C(=O)C(NCCC)=C(N2CC2)C1=O", 6.2],
  ["O=C1C(N2CCOCC2)=C(N2CC2)C(=O)C(N2CCOCC2)=C1N1CC1", 6.0],
  ["O=C1C(N2CCCC2)=C(N2CC2)C(=O)C(N2CCCC2)=C1N1CC1", 6.2],
  ["CN(C)C1=C(N2CC2)C(=O)C(N(C)C)=C(N2CC2)C1=O", 3.0],
  ["CNC1=C(N2CC2C)C(=O)C(NC)=C(N2CC2C)C1=O (stereo not shown)", 12.5]
]}

----------
system: ependymoblastoma; assay type: in vivo, murine; details: QD1-5, Table X
measurement.kind: OD (mg/kg/injection)

{"columns": ["entry.smiles", "test.system", "measurement.kind", "reported.value"],
 "data": [
  ["NC1=C(N2CC2)C(=O)C(N)=C(N2CC2)C1=O", "ependymoblastoma", "OD", 0.2],
  ["O=C1C(NCCO)=C(N2CC2)C(=O)C(NCCO)=C1N1CC1", "ependymoblastoma", "OD", 1.5],
  ["O=C1C(N2CCN(CCO)CC2)=C(N2CC2)C(=O)C(N2CCN(CCO)CC2)=C1N1CC1", "ependymoblastoma", "OD", 1.0],
  ["CCNC1=C(N2CC2)C(=O)C(NCC)=C(N2CC2)C1=O", "ependymoblastoma", "OD", 1.5]
]}

----------
OD values for the molecules below.
system: lymphoid leukemia L1210; settings: Day 1 only (1 injection), Table VIII

{"columns": ["entry.smiles", "unit.symbol", "OD"],
 "data": [
  ["CN(C)C1=C(N2CC2)C(=O)C(N(C)C)=C(N2CC2)C1=O", "mg/kg/injection", 1.5],
  ["O=C1C(N2CCN(CCO)CC2)=C(N2CC2)C(=O)C(N2CCN(CCO)CC2)=C1N1CC1", "mg/kg/injection", 4.0],
  ["O=C1C(NCCO)=C(N2CC2)C(=O)C(NCCO)=C1N1CC1", "mg/kg/injection", 1.5],
  ["NC(=O)CNC1=C(N2CC2)C(=O)C(NCC(N)=O)=C(N2CC2)C1=O", "mg/kg/injection", 10.0],
  ["CNC1=C(N2CC2)C(=O)C(NC)=C(N2CC2)C1=O", "mg/kg/injection", 0.7],
  ["CCNC1=C(N2CC2)C(=O)C(NCC)=C(N2CC2)C1=O", "mg/kg/injection", 1.5],
  ["CCCCNC1=C(N2CC2)C(=O)C(NCCCC)=C(N2CC2)C1=O", "mg/kg/injection", 10.0]
]}
